Target protein (sequence): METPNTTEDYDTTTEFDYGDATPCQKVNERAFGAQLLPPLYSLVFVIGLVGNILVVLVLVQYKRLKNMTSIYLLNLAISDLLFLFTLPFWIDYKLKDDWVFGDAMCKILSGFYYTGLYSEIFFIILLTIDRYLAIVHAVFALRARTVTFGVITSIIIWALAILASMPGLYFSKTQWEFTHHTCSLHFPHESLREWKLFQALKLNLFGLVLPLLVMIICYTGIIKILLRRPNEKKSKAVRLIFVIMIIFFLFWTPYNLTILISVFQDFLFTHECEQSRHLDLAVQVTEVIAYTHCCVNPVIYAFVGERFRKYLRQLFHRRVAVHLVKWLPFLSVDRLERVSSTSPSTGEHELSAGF
PROPERTY: IC50

CC[C@H](NC(=O)N1CCC[C@@H]1c1nnc(C)n1Cc1ccc(Cl)cc1)c1cc2ccccc2o1: < 50 nM
Cc1nnc([C@H]2C[C@@H](O)CN2C(=O)Nc2ccc(C(F)(F)F)nc2Cl)n1Cc1ccc(Cl)cc1: 50 to 500 nM
Cc1nnc([C@H]2CCCN2C(=O)Nc2ccc(Cl)c(F)c2)n1Cc1ccc(Cl)cc1: 50 to 500 nM
Cc1onc(-c2ccccc2Cl)c1NC(=O)N1CCC[C@@H]1c1nnc(C)n1Cc1ccc(Cl)cc1: < 50 nM
CC[C@H](NC(=O)N1CCC[C@@H]1c1nnc(C)n1Cc1ccc(Cl)cc1)c1ccc(C)nc1C: < 50 nM
Cc1nnc([C@H]2C[C@H](O)CN2C(=O)NCc2ccc(C(F)(F)F)cc2)n1Cc1ccc(Cl)cc1: < 50 nM

The reported value for CCc1noc(C)c1NC(=O)N1CCC[C@@H]1c1nnc(C)n1Cc1ccc(Cl)cc1 in terms of IC50 is < 50 nM

====

MEASURED_ON: human CCR1 (Homo sapiens)
Sequence (P32246 1-355): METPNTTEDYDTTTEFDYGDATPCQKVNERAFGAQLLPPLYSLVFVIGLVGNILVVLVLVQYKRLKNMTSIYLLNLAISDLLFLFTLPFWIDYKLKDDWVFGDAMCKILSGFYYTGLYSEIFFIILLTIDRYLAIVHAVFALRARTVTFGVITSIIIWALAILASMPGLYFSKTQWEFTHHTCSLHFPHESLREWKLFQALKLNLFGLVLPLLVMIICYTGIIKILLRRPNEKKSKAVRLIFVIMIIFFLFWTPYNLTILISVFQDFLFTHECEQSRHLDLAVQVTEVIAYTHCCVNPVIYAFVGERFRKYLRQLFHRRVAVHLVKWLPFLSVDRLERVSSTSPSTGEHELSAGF
PROPERTY: IC50

The reported value for COC(=O)c1ccc(C(F)(F)F)c(NC(=O)N2CCC[C@@H]2c2nnc(C)n2Cc2ccc(Cl)cc2)c1 [Compound 317] in terms of IC50 is 50 to 500 nM

====

IC50 values recorded for human CCR1 (Homo sapiens, UniProt P32246)

Answered examples (5):
Cc1noc(-c2ccccc2)c1NC(=O)N1CCC[C@@H]1c1nnnn1Cc1ccc(Cl)cc1: < 50 nM
CC[C@@H](NC(=O)N1CCC[C@@H]1c1nnc(C)n1Cc1ccc(Cl)cc1)c1ccc(C(F)(F)F)nc1: < 50 nM
O=C(NC1CCCOc2cc(Cl)ccc21)N1CCC[C@@H]1c1ncnn1Cc1ccc(Cl)cc1 (stereo partly shown): 500 to 5000 nM
NC(=O)c1nnc([C@H]2CCCN2C(=O)Nc2ccc(Cl)cc2F)n1Cc1ccc(Cl)cc1: 500 to 5000 nM
Cc1nnc([C@H]2CCCN2C(=O)Nc2ccc3c(c2)S(=O)(=O)C=C3)n1Cc1ccc(Cl)cc1: 50 to 500 nM

Bench note, human CCR1 (Homo sapiens, UniProt P32246): Cc1nnc([C@H]2CCCN2C(=O)NCC2CCOC2)n1Cc1ccc(Cl)cc1 (stereo partly shown) , IC50 reads 500 to 5000 nM

Bench note, human CCR1 (Homo sapiens, UniProt P32246): Cc1nnc([C@H]2CCCN2C(=O)Nc2ccc(S(N)(=O)=O)cc2)n1Cc1ccc(Cl)cc1 , IC50 reads 500 to 5000 nM

Bench note, human CCR1 (Homo sapiens, UniProt P32246): CC[C@H](NC(=O)N1CCC[C@@H]1c1nncn1Cc1ccc(Cl)cc1)c1cc2ccccc2o1 , IC50 reads < 50 nM

Bench note, human CCR1 (Homo sapiens, UniProt P32246): Cc1cccc(C(=O)O)c1NC(=O)N1CCC[C@@H]1c1nnc(C)n1Cc1ccc(Cl)cc1 , IC50 reads 500 to 5000 nM
